Form field: Ratio (one value per entry).
experiment_summary: Genotoxicity in Salmonella typhimurium TA1535/pSK1002 assessed as DNA-damage activity by measuring beta-galactosidase activity at 75 ug/ml measured by SOS-chromotest relative to solvent control
Format: toxicity
study_conditions: salmonella enterica subsp. enterica serovar typhimurium; dose 75 µg/ml
Enter a number only.

Some molecules with known Ratio results, for comparison:
[
  {
    "molecule": "CCCCCCCCCCCC(=O)OCCC[N+](C)(C)Cc1cnc(C)c2c1COC(CCC)O2.[Cl-] (centres undefined)",
    "Ratio": 1.5
  },
  {
    "molecule": "CCCCCCCCCCCCCC(=O)NCC[N+](C)(C)Cc1cnc(C)c2c1COC(C)(C)O2.[Cl-]",
    "Ratio": 0.7
  },
  {
    "molecule": "CCCCCCCCCCCCCC(=O)OCC[N+](C)(C)Cc1cnc(C)c2c1COC(CCC)O2.[Cl-] (centres undefined)",
    "Ratio": 1.5
  },
  {
    "molecule": "CCCCCCCCCCCCCC(=O)OCC[N+](C)(C)Cc1cnc(C)c2c1COC(C)(C)O2.[Cl-]",
    "Ratio": 1.2
  },
  {
    "molecule": "CCCCCCCCCCCCCC(=O)NCCC[N+](C)(C)Cc1cnc(C)c2c1COC(C)(C)O2.[Cl-]",
    "Ratio": 0.7
  },
  {
    "molecule": "CCCCCCCCCCCCCC(=O)NCC[N+](C)(C)Cc1nc(C)c2c(c1CO)COC(C)(C)O2.[Cl-]",
    "Ratio": 0.7
  },
  {
    "molecule": "CCCCCCCCCCCC(=O)NCC[N+](C)(C)Cc1cnc(C)c2c1COC(C)(CCC)O2.[Cl-] (centres undefined)",
    "Ratio": 0.7
  },
  {
    "molecule": "CCCCCCCCCCCCCC(=O)OCC[N+](C)(C)Cc1nc(C)c2c(c1CO)COC(C)(C)O2.[Cl-]",
    "Ratio": 1.2
  }
]

Turning now to a further record.
GET /values?readout=Ratio&item= CCCCCCCCCCCCCC(=O)NCC[N+](C)(C)Cc1cnc(C)c2c1COC(C)(CCC)O2.[Cl-] (centres undefined)
0.9
